Target: human CYP11B2 (Homo sapiens, UniProt P19099)
Sequence (P19099 25-503): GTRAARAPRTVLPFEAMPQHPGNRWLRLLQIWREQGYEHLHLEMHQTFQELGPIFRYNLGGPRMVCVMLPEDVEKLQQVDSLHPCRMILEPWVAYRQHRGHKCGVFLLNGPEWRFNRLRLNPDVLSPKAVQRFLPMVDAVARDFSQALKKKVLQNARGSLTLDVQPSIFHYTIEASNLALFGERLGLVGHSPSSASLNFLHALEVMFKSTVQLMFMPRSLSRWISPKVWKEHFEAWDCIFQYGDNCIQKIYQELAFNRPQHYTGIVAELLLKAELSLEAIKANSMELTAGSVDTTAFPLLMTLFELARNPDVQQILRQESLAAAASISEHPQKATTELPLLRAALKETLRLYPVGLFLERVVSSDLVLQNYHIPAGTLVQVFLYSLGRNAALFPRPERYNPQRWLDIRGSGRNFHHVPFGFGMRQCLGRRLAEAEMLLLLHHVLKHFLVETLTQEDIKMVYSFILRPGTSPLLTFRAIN
Assay: G-402 cellular enzyme assay, human CYP11B2 (aldosterone release, HTRF)
Conditions: G-402 cells, 1 μM Deoxycorticosterone
pEC50: −log10 of the molar value.
MEASUREMENT LABEL: pEC50

COMPOUND: COC(OC)c1ccncc1N1CCc2cc(Cl)ccc2C1=O [Example 61]
pEC50: 5.55

COMPOUND: Cn1ccnc1C(=O)c1cncc(N2CCc3cc(Cl)ccc3C2=O)c1 [Example 267]
pEC50: 5.79

COMPOUND: CC1(COCc2cncc(N3CCc4cc(Cl)ccc4C3=O)c2)CC1 [Example 200]
pEC50: 7.49

P: CC(O)c1cncc(N2CCc3cc(Cl)ccc3C2=O)c1 (stereo not shown) [Example 13]
Q: Cn1ccnc1C(O)c1cncc(N2CCc3cc(Cl)ccc3C2=O)c1 (stereo not shown) [Example 30]
Q: Short answer wanted: higher pEC50, P or Q ? Provide the label of your selected option as the answer.
A: P
(P: 7.27, Q: 6.12)

1: CCS(=O)(=O)N(C)Cc1cncc(N2C(=O)c3ccc(F)cc3C23CC3)c1 [Example 394]
2: CC1Cc2cc(Cl)ccc2C(=O)N1c1cncc(F)c1 (stereo not shown) [Example 89]
Q: Short answer wanted: higher pEC50, 1 or 2 ? Provide the label of your selected option as the answer.
A: 1
